Test system: RPMI-8226 leukemia
Assay: NCI-60 one-dose screen, 48 h (100 = growth as untreated, 0 = no growth, -100 = all killed)
Details: 10 µM
This is part of a sample that, as a whole, favours compounds with a hit. Of some 83,000 tested, about 20% had one in any assay.
What growth was measured for each of the following?
Numbers only; they are read as %.

Documented growth of CC(=O)C1=C(C)NC(SCC(=O)Nc2ccc(S(=O)(=O)Nc3cc(C)on3)cc2)=NC1c1ccccc1 (centres undefined) : 99.8

Measured growth of `CN1CCN(c2ccc(Nc3nc(NCCCNC(=O)C4CCCCC4)c4sccc4n3)cc2)CC1` : -12.3

Recorded result, `Cc1ccc(-c2cc(-c3cc4ccccc4nc3Cl)[nH]c(=O)n2)cc1` , growth: -30.1

growth reading for COC(=O)C(Cc1ccc(O)c(O)c1)NC(=O)C(CSC/C=C(\C)CCCC(C)CCCC(C)CCCC(C)C)NC(C)=O (centres undefined) : -5.06

The recorded growth for entry `O=C1Nc2ccc(F)cc2/C1=C/c1cccc(OCc2ccccc2)c1` equals -28.1

For `COc1ccc(CN2[C@@H](C(=O)NCc3ccc(C(=O)NO)cc3)Cc3c([nH]c4ccccc34)[C@@H]2C)cc1` the compound record lists growth as 20.1

Entry `O=C(CNc1nc(-c2ccccc2)cs1)Nc1cccc(Cl)c1` , growth reported as 26

So for `O=C1NC(=NC2CCCCCC2)N/C1=C\c1ccc2ncoc2c1` , the logged growth turned out to be 35.9

Form: compound = `C=C(C)[C@@H]1CC[C@]2(C(=O)OC)CC[C@]3(C)[C@H](CC[C@@H]4[C@@]5(C)CC[C@H](N)C(C)(C)[C@@H]5CC[C@]43C)[C@@H]12` ; growth = -30.7
